Just for reference, patent US8822500B2 is where these values come from.

Assay: Caco-2 cell permeation study;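 note: Caco-2 monolayers grown for 21–28 days with integrity confirmed by TEER, apical buffer HBSS with MES, basolateral buffer HBSS with HEPES, compound levels quantified by LC/MS/MS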
Type: in vitro ADME
Conditions: human, Caco-2, pH 6.5, 10 μM, apical pH 6.5, 2 h
Kindly state Papp A→B at 2 h, 10 μM for each of the entries shown.

CC(Cc1c(F)c(F)cc(F)c1F)Nc1cc[nH]c(=O)c1-c1nc2cc3c(cc2[nH]1)C(=O)N(C)C3 (centres unmarked): 0.24 ×10⁻⁶ cm/s
CC(Oc1cc(-c2cnn(C3CCNCC3)c2)cnc1N)c1c(Cl)ccc(F)c1Cl (racemic) [PF2341066, crizotinib, reference compound]: < 0.2 ×10⁻⁶ cm/s
C[C@@H](Cc1c(F)c(F)cc(F)c1F)Nc1cc[nH]c(=O)c1-c1nc2cc3c(cc2[nH]1)C(=O)N(CCN(C)C)C3=O: < 0.2 ×10⁻⁶ cm/s
C[C@@H](Cc1c(F)c(F)cc(F)c1F)Nc1cc[nH]c(=O)c1-c1nc2cc3c(cc2[nH]1)C(=O)N(c1cccnc1)C3=O: < 0.2 ×10⁻⁶ cm/s
Cc1ccc(F)cc1CC(C)Nc1cc[nH]c(=O)c1-c1nc2cc3c(cc2[nH]1)CNC3=O (centres unmarked): 9.3 ×10⁻⁶ cm/s

Quick request: Papp A→B at 2 h, 10 μM for each listed item, please.
1. C[C@@H](Cc1c(F)c(F)cc(F)c1F)Nc1cc[nH]c(=O)c1-c1nc2cc3c(cc2[nH]1)C(O)N(c1cccnc1)C3=O (some centres unmarked)
2. CC(Cc1cc(F)ccc1F)Nc1cc[nH]c(=O)c1-c1nc2cc3c(cc2[nH]1)CNC3=O (centres unmarked)
3. C[C@@H](Cc1cc(F)ccc1F)Nc1cc[nH]c(=O)c1-c1nc2cc3c(cc2[nH]1)C(=O)N(C)C3=O

Response:
< 0.2 ×10⁻⁶ cm/s
1.25 ×10⁻⁶ cm/s
< 0.2 ×10⁻⁶ cm/s
